- TEST_SYSTEM: Mitogen-activated protein kinase 7 (Homo sapiens)
- MEASUREMENT_NOTES: ERK5 transactivation activators in reporter cells, primary screen, cell-based, HTS (AID 1508626);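 also: luciferase driven by Gal4-ERK5 fusion binding five Gal4 sites before minimal TATA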
- APPLIED_CONDITIONS: HeLa Gal4-ERK5 transactivation, 18 h, at 5 µM, hits give high values
Calls of active or inactive are those of the source.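 The calls were made as follows: active = luciferase signal above three times the same-plate solvent-only control wells; inactive = the rest.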
MEASUREMENT_NAME: luciferase signal

CC(C)[C@@H]1CC[C@@H](C)CC1=O : 52 AU (inactive)
O=C(O)CCCCCCCCCCCCC1C=CCC1 (centres undefined) : 20 AU (inactive)
O=C(Cc1cccs1)N[C@@H]1C(=O)N2C(C(=O)[O-])=C(C[n+]3ccccc3)CS[C@H]12 : 112 AU (inactive)

Q: Notebook entry, Mitogen-activated protein kinase 7 (Homo sapiens) assay: luciferase signal of `Oc1ccc([C@H]2Oc3cc(O)cc(O)c3C[C@H]2O)cc1` = ?
Result: 140 AU (inactive)

====

- MEASUREMENT_NOTES: inhibition of 3D7 malaria parasite growth – strain 3D7 (AID 2306);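 also: 0% = DMSO wells and 100% = chloroquine plus artemisinin control wells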
- APPLIED_CONDITIONS: P. falciparum 3D7 erythrocytic growth, LDH absorbance, 72 h; at 2 µM; hits give high values
MEASUREMENT_NAME: growth inhibition (%)
Expressed in %, but write only the number.

Q: Query (compound): `COCc1cccc(-c2cc(-c3ccc(S(C)(=O)=O)cc3)cnc2N)c1` ; field requested: growth inhibition
Result: 98

Q: Another compound to check: `Cc1cc(C2CCN(CCCCNC(=O)c3ccc(NC(=O)c4ccc(Cl)cc4)cc3)CC2)c(C)cc1OCc1cccnc1`
Result: 101

Q: Another compound to check: `COc1c(C2CCN(CCCCNC(=O)c3noc(-c4ccc(C#N)cc4)n3)CC2)ccc2c1CCCC2`
Result: 99

Q: Another compound to check: COc1ccc(NC(=O)C2c3ccccc3C(=O)N(CC(C)C)C2c2cccs2)cc1OC (configuration not stated)
Result: 100

Q: Another compound to check: `CC(C)(C)CN1C(=O)C(c2ccccc2)(c2ccccc2)N=C1N`
Result: 98

Q: Another compound to check: CC1CN(Cc2cccc(-c3ccc(-c4nc5ccc(F)cc5[nH]4)cc3)c2)CC(C)O1 (configuration not stated)
Result: 87

Q: Another compound to check: `O=C(NCCc1ccc(Cl)c(Cl)c1)c1ccc(CNC(=O)c2ccc(O)c(-c3ccc(Cl)c(Cl)c3)c2)cc1`
Result: 97

====

- TEST_SYSTEM: NAD(+) hydrolase SARM1 (Homo sapiens)
- MEASUREMENT_NOTES: SARM1 TIR NADase inhibitors, cell lysate, NAD-Glo luminescence (AID 1508614);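 also: higher remaining NAD means stronger inhibition of SARM1 NADase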
- APPLIED_CONDITIONS: SAM-TIR HEK293T lysate NADase, at 1 µM
Activity calls are given as the source filed them.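 How the source made its calls: active means compound whose remaining NAD level is above about 45 nM (limit read from the data); inactive means the rest.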
Outcome (select one): true (1) (active), false (0) (inactive)

For orientation, consider the following solved cases.
CC1CCc2c(N3CCC(O)CC3)c(F)cc3c(=O)c(C(=O)O)cn1c23 (centres undefined) : false (0)
CCCCNc1ccc(C(=O)OCCOCCOCCOCCOCCOCCOCCOCCOCCOC)cc1 : false (0)
CC#C[C@]1(O)CC[C@H]2[C@@H]3CCC4=CC(=O)CCC4=C3[C@@H](c3ccc(N(C)C)cc3)C[C@@]21C : false (0)
CO/N=C(\C(=O)N[C@@H]1C(=O)N2C(C(=O)O)=C(CSc3nc(=O)c(O)nn3C)CS[C@H]12)c1csc(N)n1 : false (0)

Next compound, please.
Q: What did the test return for `O=C(O)COC(=O)Cc1ccccc1Nc1c(Cl)cccc1Cl` ?
Result: false (0)

====

- TEST_SYSTEM: Mitogen-activated protein kinase 7 (Homo sapiens) (UniProt Q13164)
- Sequence (Q13164 whole entry, looked up, the tested form may be a part): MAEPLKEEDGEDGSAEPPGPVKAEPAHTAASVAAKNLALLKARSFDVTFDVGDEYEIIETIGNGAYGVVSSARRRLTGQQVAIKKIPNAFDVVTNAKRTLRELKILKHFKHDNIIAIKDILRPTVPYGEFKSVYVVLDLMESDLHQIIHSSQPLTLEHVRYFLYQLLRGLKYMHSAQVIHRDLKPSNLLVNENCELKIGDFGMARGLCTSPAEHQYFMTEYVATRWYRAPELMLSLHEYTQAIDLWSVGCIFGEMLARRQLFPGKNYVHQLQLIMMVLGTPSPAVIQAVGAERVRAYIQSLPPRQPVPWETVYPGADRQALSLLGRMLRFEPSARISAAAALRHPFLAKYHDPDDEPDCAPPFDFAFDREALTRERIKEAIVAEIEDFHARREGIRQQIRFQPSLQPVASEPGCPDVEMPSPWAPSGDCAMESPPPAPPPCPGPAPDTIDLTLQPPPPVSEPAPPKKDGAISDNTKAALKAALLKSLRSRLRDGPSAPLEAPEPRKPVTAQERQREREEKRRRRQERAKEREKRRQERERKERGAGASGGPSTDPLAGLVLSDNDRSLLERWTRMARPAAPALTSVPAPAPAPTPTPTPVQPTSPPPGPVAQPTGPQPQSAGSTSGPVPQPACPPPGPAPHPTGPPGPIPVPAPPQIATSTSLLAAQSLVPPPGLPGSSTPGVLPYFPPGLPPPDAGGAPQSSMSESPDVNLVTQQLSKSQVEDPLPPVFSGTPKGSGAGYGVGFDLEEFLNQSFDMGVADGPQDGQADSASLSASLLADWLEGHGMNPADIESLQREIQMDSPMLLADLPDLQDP
- MEASUREMENT_NOTES: ERK5 transactivation activators in reporter cells, primary screen, cell-based, HTS (AID 1508626);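 also: luciferase driven by Gal4-ERK5 fusion binding five Gal4 sites before minimal TATA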
- APPLIED_CONDITIONS: HeLa Gal4-ERK5 transactivation, 18 h, at 5 µM
Activity calls are given as the source filed them.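 Rule for the calls: active = luciferase signal above three times the same-plate solvent-only control wells; inactive = the rest.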
Outcome (select one): yes (active), no (inactive)

COc1cc2c(cc1OC)C(=O)OC2 : no
Cc1ccc2c(c1)CC[C@H]1CC(=O)CC[C@]21C : no
COc1cc(O)c2c(c1)C(=O)c1cc(C)cc(O)c1C2=O : no
COc1ccc([C@@H]2CC(=O)c3c(O)cc(O)cc3O2)cc1O : no
CC(C(=O)O)c1ccc(N2Cc3ccccc3C2=O)cc1 (configuration not stated) : no
CC(=O)N(c1onc(C)c1C)S(=O)(=O)c1ccc(N)cc1 : no

Q: What did the test return for `OCc1ccccc1O[C@@H]1O[C@H](CO)[C@@H](O)[C@H](O)[C@H]1O` ?
Result: no

Q: Another molecule to check: `COc1ccc(-c2oc3cc(O[C@@H]4O[C@H](CO)[C@@H](O)[C@H](O)[C@H]4O)c(OC)c(O)c3c(=O)c2OC)cc1O`
Result: no

Q: Another molecule to check: `CCCCCCCCCCCCCCCC(=O)OC/C=C(C)/C=C/C=C(C)/C=C/C1=C(C)CCCC1(C)C`
Result: yes

Q: Another molecule to check: `N#Cc1ccc2c(c1)N(CCCN1CCC(O)CC1)c1ccccc1S2`
Result: no

Q: Another molecule to check: `Nc1nc(/C(=C/CC(=O)O)C(=O)N[C@@H]2C(=O)N3C(C(=O)O)=CCS[C@H]23)cs1`
Result: no

Q: Another molecule to check: `C[C@H]1COc2c(N3CCN(C)CC3)c(F)cc3c(=O)c(C(=O)O)cn1c23`
Result: no

====

- Tested on: Aerobactin synthetase IucA (Klebsiella pneumoniae)
- MEASUREMENT_NOTES: IucA aerobactin synthetase inhibitors, biochemical, Tocris library, absorbance (AID 1345561);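 also: 100% = enzyme without compound and 0% = no enzyme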
- APPLIED_CONDITIONS: purified IucA enzyme assay, absorbance (OD) read-out; hits give low values; concentration not given here
MEASUREMENT_NAME: remaining activity (%)
Expressed in %, but write only the number.

CN1CCC(Nc2ncc3ncnc(Nc4ccc(F)c(Cl)c4)c3n2)CC1 : 123
CC(CCc1ccc(O)cc1)NCCc1ccc(O)c(O)c1 (stereo unspecified) : 94.6
O=S1(=O)c2cccc3cccc(c23)N1CCCN1CCN(c2ccc(F)cc2)CC1 : 92.7
NC(=O)n1c(O)c(C(=O)c2cccs2)c2cc(Cl)ccc21 : 121
O=C(O)C1=CCCNC1 : 107

Q: Query (compound): `CCCCCCCCCCCC1=C(O)C(=O)C=C(O)C1=O` ; field requested: remaining activity
Result: 99.6

====

Each entry below carries its recorded GLP1 secretion stimulation.
- MEASUREMENT_NOTES: glucagon-like peptide 1 release enhancers, primary assay, NCI-H716 cell line, NPC library (AID 1117341)
- APPLIED_CONDITIONS: NCI-H716 cells, at 10 µM, hits give high values
Expressed in %, but write only the number.

COc1ccc(O)cc1 : -0.4

Q: Query (molecule): `C[C@H](NCCc1ccc(O)cc1)[C@H](O)c1ccc(O)cc1` ; field requested: GLP1 secretion stimulation
Result: -4.3

Q: Another molecule to check: `CCC=CCC=CCC=CCCCCCCCC(=O)O`
Result: 12.4

====

- MEASUREMENT_NOTES: ovarian cancer cell viability with rucaparib, profiling panel, oncology-focused library, rucaparib conditional (AID 1508598)
- APPLIED_CONDITIONS: patient-derived ovarian cancer cells, CellTiter-Glo viability, 144 h; at 1.25 µM; OCI-C5x cells; with rucaparib 10 µM; hits give low values; 100% = cells with rucaparib alone
Calls of active or inactive are those of the source.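 Rule for the calls: active = normalized viability below 100% at a tested concentration; inactive = the rest.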
MEASUREMENT_NAME: viability

Observe how each entry below is paired with its result.
COc1c(C)c2c(c(O)c1C/C=C(\C)CCC(=O)OCCN1CCOCC1)C(=O)OC2 : 157% (inactive)
COc1nc(N)nc2c1ncn2[C@@H]1O[C@H](CO)[C@@H](O)[C@@H]1O : 102% (inactive)
O=C(O[C@@H]1Cc2c(O)cc(O)cc2O[C@@H]1c1cc(O)c(O)c(O)c1)c1cc(O)c(O)c(O)c1 : 111% (inactive)
COc1cc(Nc2c(C#N)cnc3cc(OCCCN4CCN(C)CC4)c(OC)cc23)c(Cl)cc1Cl : 113% (inactive)

We next turn to a different compound, shown below.
Q: Query (compound): `Cc1cc(O)c2c(c1)C(=O)c1cccc(O)c1C2=O` ; field requested: viability
Result: 114% (inactive)

====

Each entry below carries its recorded insulin secretion stimulation.
- MEASUREMENT_NOTES: stimulators of insulin release from INS-1E, primary screen, cell-based, 5 mM glucose, NPC library (AID 1117329)
- APPLIED_CONDITIONS: rat INS-1E insulin secretion, at 10 µM, hits give high values
Expressed in %, but write only the number.

Observe how each entry below is paired with its result.
COc1nccnc1NS(=O)(=O)c1ccc(N)cc1 : 1.7
O=c1cc(O)c(Cl)c[nH]1 : -1.9
Cc1ccc(C(=O)c2cc(O)c(O)c([N+](=O)[O-])c2)cc1 : -0.8
CCCC(=O)O[C@]1(C(=O)CO)CC[C@H]2[C@@H]3CCC4=CC(=O)CC[C@]4(C)[C@H]3[C@@H](O)C[C@@]21C : 1.4
Clc1cc(Cl)c(OCC#CI)cc1Cl : 9.6
CCCNC(C)(C)COC(=O)c1ccccc1 : 4.2

Q: Query (molecule): C=CC(C)(O)CCC=C(C)CCC=C(C)C (centres undefined) ; field requested: insulin secretion stimulation
Result: -0.2
